Listing of entries alongside the reported growth inhibition.
protocolNotes: antimalarial activity against Dd2 strain (AID 2302);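 further: 0% = DMSO untreated growth and 100% = chloroquine plus artemisinin killed control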
runConditions: P. falciparum Dd2 in RBCs, LDH growth readout, 72 h; at 2 µM; active compounds read high

{"columns": ["compound", "growth inhibition (%)"],
 "data": [
  ["Cc1cc(N2CCC(NS(=O)(=O)c3cccc4cccnc34)CC2)nc(Nc2cccc(C#N)c2)n1", 87],
  ["Nc1ncc(-c2ccc3ncccc3c2)c(N)n1", -1],
  ["Cn1nc(-c2cccc(CNC3CCc4ccccc43)c2)c2cnc(NC3CCCC3)nc21 (centres undefined)", 23],
  ["N#Cc1ccc(C2CCN(CC[C@H](N)Cc3ccc(Cl)s3)CC2)cc1", 30],
  ["CC(C)n1c(CC2CCN(CC3CCN(C(=O)/C=C/c4ccc(Cl)c(Cl)c4)CC3)CC2)nc2ccccc21", 23],
  ["CN1CCC(N(Cc2ccc(-c3ccc(C(F)(F)F)cc3)cc2)C(=O)Cn2c(SCc3cccc(F)c3F)cc(=O)c3c2CCC3)CC1", 83],
  ["CCN(CC)CCNc1c2ccc(Cl)cc2nc2ccc(OC)nc12", 99],
  ["CCNc1cc(C(=O)N[C@@H](Cc2ccccc2)[C@H](O)CNC23CCC(CC2)CC3)cc(N2CCCCS2(=O)=O)c1", 98],
  ["Cc1ccc(NC(=O)Cc2noc(CC3CCCN3C(=O)N[C@@H](C)c3ccccc3)n2)cc1 (some centres undefined)", 90]
]}
